- Test system: Mus musculus
- test-name: Anticonvulsant activity in albino CD-1 mouse assessed as protection against pentylenetetrazol-induced tonic seizure ratio at 40 mg/kg, ip administered 60 to 90 mins before pentylenetetrazol challenge relative to control
- Format: functional
- condition-context: route intraperitoneal
We begin with a simple list: items and their reported Ratio.
In your answer, state the number alone without any accompanying words.

Examples from the recorded data:
> print(dat)
                                 cpd.smiles  value.type  recorded.number
1  CCN(C)[C@H]1CCN([C@H]2Cc3ccccc3Sc3ccc(Cl)cc32)C1       Ratio             0.93
2  CCN(C)[C@H]1CCN([C@@H]2Cc3ccccc3Sc3ccc(Cl)cc32)C1       Ratio                1
3  CCN(C)[C@@H]1CCN([C@@H]2Cc3ccccc3Sc3ccc(Cl)cc32)C1       Ratio             0.75

Field: next compound
Which measured Ratio value corresponds to `CCN(C)[C@@H]1CCN([C@H]2Cc3ccccc3Sc3ccc(Cl)cc32)C1` ?
0.73

###

- test-name: Neurotoxicity against ip dosed albino CD-1 mouse by rotarod test
- Format: toxicity, organism-based
- condition-context: in vivo
value-type: TD50
Number plus unit, in that order.

These recorded examples may help you get a feel for the data.
> print(dat)
                                 cpd.smiles  value.type      result
1  CCN(C)[C@@H]1CCN([C@@H]2Cc3ccccc3Sc3ccc(Cl)cc32)C1        TD50   6.4 mg/kg
2  CCN(C)[C@H]1CCN([C@@H]2Cc3ccccc3Sc3ccc(Cl)cc32)C1        TD50  12.5 mg/kg
3  CCN(C)[C@H]1CCN([C@H]2Cc3ccccc3Sc3ccc(Cl)cc32)C1        TD50   6.2 mg/kg

Now look at this entry.
Find the recorded TD50 belonging to `CCN(C)[C@@H]1CCN([C@H]2Cc3ccccc3Sc3ccc(Cl)cc32)C1` and report it.
13.6 mg/kg

###

- System: Mus musculus
- test-name: Antipsychotic activity in ip dosed albino CD-1 mouse assessed as spontaneous motor activity for 15 mins intervals for 2 hrs by conditioned avoidance test
- Format: functional
- condition-context: CD-1, ip
Listed below: ED50 values for each entry.
Give the number; mg/kg is assumed, so skip it.

Some compounds with known ED50 results, for comparison:
> print(dat)
                                 cpd.smiles  recorded.number
1  CCN(C)[C@@H]1CCN([C@@H]2Cc3ccccc3Sc3ccc(Cl)cc32)C1              6.4
2  CCN(C)[C@H]1CCN([C@H]2Cc3ccccc3Sc3ccc(Cl)cc32)C1              6.8
3  CCN(C)[C@@H]1CCN([C@H]2Cc3ccccc3Sc3ccc(Cl)cc32)C1               12

Pending compound:
Requested field: ED50. Item: `CCN(C)[C@H]1CCN([C@@H]2Cc3ccccc3Sc3ccc(Cl)cc32)C1`
12

###

- System: Mus musculus
- test-name: Analgetic activity in albino CD-1 mouse assessed as inhibition of thermally-induced pain at 10 to 20 mg/kg, ip
- Type: functional, organism-based
Active and inactive are the calls of the source. No cut-off for these calls is given here.
value-type: Activity

> print(dat)
                                 cpd.smiles  value.type  result
1  CCN(C)[C@H]1CCN([C@H]2Cc3ccccc3Sc3ccc(Cl)cc32)C1    Activity  Active
2  CCN(C)[C@@H]1CCN([C@@H]2Cc3ccccc3Sc3ccc(Cl)cc32)C1    Activity  Active
3  CCN(C)[C@@H]1CCN([C@H]2Cc3ccccc3Sc3ccc(Cl)cc32)C1    Activity  Active
4  CCN(C)[C@H]1CCN([C@@H]2Cc3ccccc3Sc3ccc(Cl)cc32)C1    Activity  Active

Data origin: ChEMBL document CHEMBL3272322
